Target: CDK5/CDK5R1 (Homo sapiens, UniProt Q00535)
Sequence (Q00535 whole entry): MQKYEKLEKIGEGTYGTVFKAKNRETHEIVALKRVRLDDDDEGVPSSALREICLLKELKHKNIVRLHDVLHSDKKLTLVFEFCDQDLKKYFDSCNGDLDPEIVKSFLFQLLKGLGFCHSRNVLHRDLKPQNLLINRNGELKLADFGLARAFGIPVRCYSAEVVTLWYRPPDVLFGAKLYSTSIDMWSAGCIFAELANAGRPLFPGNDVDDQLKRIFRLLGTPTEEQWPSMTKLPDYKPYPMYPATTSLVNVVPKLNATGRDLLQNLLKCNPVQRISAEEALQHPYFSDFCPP
Sequence (Q15078 whole entry partner): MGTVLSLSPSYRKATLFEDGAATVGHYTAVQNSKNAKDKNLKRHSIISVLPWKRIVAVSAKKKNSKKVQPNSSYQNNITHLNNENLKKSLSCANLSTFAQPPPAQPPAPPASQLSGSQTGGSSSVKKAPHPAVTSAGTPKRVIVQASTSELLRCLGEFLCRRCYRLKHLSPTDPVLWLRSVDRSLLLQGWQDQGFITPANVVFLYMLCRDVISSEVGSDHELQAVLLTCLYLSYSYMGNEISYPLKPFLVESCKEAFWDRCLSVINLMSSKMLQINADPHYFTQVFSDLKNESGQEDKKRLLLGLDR
Assay: NanoBRET live-cell target engagement, CDK5-NanoLuc/CDK5R1 in HEK-293
Format: binding
Details: average (± SEM where n=3); read-out: CDK5/CDK5R1 IC50

>  <Smiles data>
CC(C)CC(=O)Nc1[nH]nc2c1CN(C(=O)C1CCN(C)CC1)C2(C)C

>  <Assay target>
CDK5/CDK5R1 (Homo sapiens, UniProt Q00535)

>  <Units symbol>
nM

>  <IC50>
360

$$$$
>  <Smiles data>
COCCN1CCN(Cc2ccc(-c3n[nH]c4c3C(=O)c3c(NC(=O)NN5CCOCC5)cccc3-4)cc2)CC1

>  <Assay target>
CDK5/CDK5R1 (Homo sapiens, UniProt Q00535)

>  <Units symbol>
nM

>  <IC50>
75

$$$$
>  <Smiles data>
CN1C/C=C/CCOc2cccc(c2)-c2ccnc(n2)Nc2cccc(c2)C1

>  <Assay target>
CDK5/CDK5R1 (Homo sapiens, UniProt Q00535)

>  <Units symbol>
nM

>  <IC50>
180

$$$$

---

Reported IC50 by item:
Molecular target: CDK5/CDK5R1 (Homo sapiens)
Assay: NanoBRET live-cell target engagement, CDK5-NanoLuc/CDK5R1 in HEK-293
Format: binding
Details: CDK5/CDK5R1; experiment 2; read-out: IC50
Property measured: IC50 (nM)

>  <Compound>
CS(=O)(=O)N1CCC(NC(=O)c2[nH]ncc2NC(=O)c2c(Cl)cccc2Cl)CC1

>  <Property measured>
IC50

>  <Reading>
25

$$$$
>  <Compound>
CC(C)c1cnn2c(NCc3ccccc3-n3cccn3)nc(OC3CCCNC3)nc12 (stereo not drawn)

>  <Property measured>
IC50

>  <Reading>
280

$$$$
>  <Compound>
CCn1cnc2c(Nc3cccc(Cl)c3)nc(N[C@@H]3CCCC[C@@H]3N)nc21 [CGP74514A]

>  <Property measured>
IC50

>  <Reading>
130

$$$$

---

Reported pIC50 by item:
Target: CDK3/Cyclin E1 (Homo sapiens)
Sequence (Q00526 whole entry): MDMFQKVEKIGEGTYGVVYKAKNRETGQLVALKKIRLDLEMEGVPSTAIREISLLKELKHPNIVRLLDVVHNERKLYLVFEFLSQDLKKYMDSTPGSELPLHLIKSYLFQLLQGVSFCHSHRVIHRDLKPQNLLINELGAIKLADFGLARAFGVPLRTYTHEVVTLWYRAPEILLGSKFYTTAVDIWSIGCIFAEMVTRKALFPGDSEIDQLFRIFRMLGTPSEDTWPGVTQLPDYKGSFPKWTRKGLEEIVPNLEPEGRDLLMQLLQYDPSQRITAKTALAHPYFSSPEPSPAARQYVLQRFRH
Sequence (P24864 whole entry partner): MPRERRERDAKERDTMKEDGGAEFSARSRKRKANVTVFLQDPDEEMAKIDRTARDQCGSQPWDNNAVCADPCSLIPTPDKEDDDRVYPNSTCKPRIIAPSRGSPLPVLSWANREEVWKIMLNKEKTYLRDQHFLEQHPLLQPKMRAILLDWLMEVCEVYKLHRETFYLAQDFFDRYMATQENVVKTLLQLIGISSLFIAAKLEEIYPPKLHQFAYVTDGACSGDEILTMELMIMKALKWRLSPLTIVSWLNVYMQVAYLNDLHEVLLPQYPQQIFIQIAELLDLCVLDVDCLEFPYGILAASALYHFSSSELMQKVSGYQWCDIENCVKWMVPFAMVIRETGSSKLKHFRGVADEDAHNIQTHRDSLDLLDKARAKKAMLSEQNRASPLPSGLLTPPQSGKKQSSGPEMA
Assay: NanoBRET live-cell target engagement, CDK3-NanoLuc/Cyclin E1 in HEK-293
Type: binding
Conditions: average (± SEM where n=3); read-out: CDK3/E1 IC50
pIC50: −log10 of the molar value.

>  <Molecule>
CN1C/C=C/CCOc2cccc(c2)-c2ccnc(n2)Nc2cccc(c2)C1 [SB1317]

>  <Assay target>
CDK3/Cyclin E1 (Homo sapiens)

>  <pIC50>
7.36

$$$$
>  <Molecule>
COCCN1CCN(Cc2ccc(-c3n[nH]c4c3C(=O)c3c(NC(=O)NN5CCOCC5)cccc3-4)cc2)CC1 [RGB286638]

>  <Assay target>
CDK3/Cyclin E1 (Homo sapiens)

>  <pIC50>
7.92

$$$$
>  <Molecule>
CC(C)CC(=O)Nc1[nH]nc2c1CN(C(=O)C1CCN(C)CC1)C2(C)C [PHA-793887]

>  <Assay target>
CDK3/Cyclin E1 (Homo sapiens)

>  <pIC50>
6.55

$$$$

---

Molecular target: CDK9/Cyclin K (Homo sapiens, UniProt P50750)
Sequence (P50750 whole entry): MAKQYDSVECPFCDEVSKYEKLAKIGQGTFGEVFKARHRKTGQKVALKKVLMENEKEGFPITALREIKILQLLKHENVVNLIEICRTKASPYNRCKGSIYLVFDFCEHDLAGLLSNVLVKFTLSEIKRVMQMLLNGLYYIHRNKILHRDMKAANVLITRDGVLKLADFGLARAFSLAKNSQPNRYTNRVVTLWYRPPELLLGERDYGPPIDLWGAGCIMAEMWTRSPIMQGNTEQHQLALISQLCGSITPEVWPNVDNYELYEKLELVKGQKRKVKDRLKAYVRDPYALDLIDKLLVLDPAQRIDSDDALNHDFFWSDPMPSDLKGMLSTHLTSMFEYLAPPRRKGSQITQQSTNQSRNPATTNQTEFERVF
Sequence (O75909 whole entry partner): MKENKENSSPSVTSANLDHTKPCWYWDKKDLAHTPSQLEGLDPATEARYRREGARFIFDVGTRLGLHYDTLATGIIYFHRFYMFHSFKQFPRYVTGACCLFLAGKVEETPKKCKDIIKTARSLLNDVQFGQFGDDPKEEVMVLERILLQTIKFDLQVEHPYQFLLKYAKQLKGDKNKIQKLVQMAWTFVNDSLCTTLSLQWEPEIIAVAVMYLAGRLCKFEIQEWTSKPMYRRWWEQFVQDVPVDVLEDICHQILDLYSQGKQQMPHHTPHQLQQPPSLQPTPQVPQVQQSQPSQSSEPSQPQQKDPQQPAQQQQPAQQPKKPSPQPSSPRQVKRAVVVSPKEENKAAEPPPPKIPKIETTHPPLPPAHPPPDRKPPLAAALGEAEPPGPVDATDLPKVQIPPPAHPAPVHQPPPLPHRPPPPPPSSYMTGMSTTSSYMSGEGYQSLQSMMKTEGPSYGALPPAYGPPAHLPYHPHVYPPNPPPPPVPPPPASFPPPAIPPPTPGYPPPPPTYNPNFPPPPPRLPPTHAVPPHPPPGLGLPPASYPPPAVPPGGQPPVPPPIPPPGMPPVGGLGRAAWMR
Test: NanoBRET live-cell target engagement, NanoLuc-CDK9/Cyclin K in HEK-293
Type: binding
Conditions: CDK9/K; average; read-out: Inhibition at 10µM (%)
Reported inhibition at 10 µM by item:

>  <Molecule>
N#CCNC(=O)c1ccc(-c2ccnc(Nc3ccc(N4CCOCC4)cc3)n2)cc1 [Momelotinib]

>  <Units symbol>
%

>  <inhibition at 10 µM>
29.7

$$$$
>  <Molecule>
Cn1cc(-c2ccc(-c3cncc(Cl)c3N3CCC4(CCNC4=O)CC3)cc2)cn1 [CCT251545]

>  <Units symbol>
%

>  <inhibition at 10 µM>
15.8

$$$$
>  <Molecule>
CC(C)N1CCN(c2ccc(Nc3ncc4cc5n(c4n3)C3(CCCCC3)CNC5=O)nc2)CC1 [Lerociclib]

>  <Units symbol>
%

>  <inhibition at 10 µM>
29.3

$$$$
>  <Molecule>
COc1ccccc1-c1cc(Nc2cccc(CS(N)(=O)=O)c2)ncn1 [LDC000067]

>  <Units symbol>
%

>  <inhibition at 10 µM>
88.8

$$$$
>  <Molecule>
COC1CN(C(=O)c2ccc3c(N)ncc(-c4ccc(-c5cnn(C)c5)cc4)c3n2)C1 [CCT251545 analog]

>  <Units symbol>
%

>  <inhibition at 10 µM>
7.2

$$$$
>  <Molecule>
CN1CCN(c2ccc(Nc3ncc4cc(C#N)c(=O)n(C5CCCC5)c4n3)cc2)CC1 [ON123300]

>  <Units symbol>
%

>  <inhibition at 10 µM>
34.2

$$$$
>  <Molecule>
CN1CCN(Cc2ccc(NC(=O)Nc3ccc(Oc4ccnc(N)n4)cc3)cc2C(F)(F)F)CC1 [K03861]

>  <Units symbol>
%

>  <inhibition at 10 µM>
85.1

$$$$
>  <Molecule>
CN1CC[C@H](c2c(O)cc(O)c3c(=O)cc(-c4ccccc4Cl)oc23)[C@H](O)C1 [Flavopiridol]

>  <Units symbol>
%

>  <inhibition at 10 µM>
97.8

$$$$
>  <Molecule>
CC(C)c1cnn2c(NCc3ccccc3)cc(NC[C@H]3CCNC[C@@H]3O)nc12 [CT7001]

>  <Units symbol>
%

>  <inhibition at 10 µM>
85.7

$$$$
>  <Molecule>
CNC(=O)c1nn(C)c2c1C(C)(C)Cc1cnc(Nc3ccc(N4CCN(C)CC4)cc3)nc1-2 [Milciclib]

>  <Units symbol>
%

>  <inhibition at 10 µM>
55.3

$$$$
>  <Molecule>
COc1ccc(F)cc1-c1cc(NC(=O)C2CCCNC2)ncc1Cl (centres unmarked) [CDK inhibitor 2]

>  <Units symbol>
%

>  <inhibition at 10 µM>
98.4

$$$$

---

Target: CDK17/Cyclin Y (Homo sapiens, UniProt Q00537)
Sequence (Q00537 whole entry, one chain of several): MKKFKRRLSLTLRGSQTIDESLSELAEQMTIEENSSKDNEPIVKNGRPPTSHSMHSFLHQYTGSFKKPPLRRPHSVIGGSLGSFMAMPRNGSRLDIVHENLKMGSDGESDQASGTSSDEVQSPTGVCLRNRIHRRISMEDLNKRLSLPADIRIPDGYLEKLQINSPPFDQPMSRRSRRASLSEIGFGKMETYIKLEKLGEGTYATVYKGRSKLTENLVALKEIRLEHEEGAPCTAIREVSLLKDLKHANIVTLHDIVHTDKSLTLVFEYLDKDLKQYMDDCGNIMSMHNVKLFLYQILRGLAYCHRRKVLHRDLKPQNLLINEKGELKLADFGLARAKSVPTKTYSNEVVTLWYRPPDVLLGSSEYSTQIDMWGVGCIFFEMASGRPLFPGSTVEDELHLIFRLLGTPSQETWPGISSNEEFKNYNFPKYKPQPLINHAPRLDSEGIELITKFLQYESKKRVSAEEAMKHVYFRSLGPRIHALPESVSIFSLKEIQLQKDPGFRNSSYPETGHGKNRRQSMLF
Assay: NanoBRET live-cell target engagement, CDK17-NanoLuc/Cyclin Y in HEK-293
Assay type: binding
Conditions: CDK17/Y; 10µM; read-out: Inhibition at 10µM (%) Replicate 2
Property measured: inhibition at 10 µM (%)

>  <Compound>
Cc1ncc(-c2ccnc(Nc3ccc(S(C)(=O)=O)cc3)n2)n1C(C)C [AZD5438]

>  <Reading>
90.1

$$$$
>  <Compound>
CCCCOc1c(C(=O)c2c(F)cc(C)cc2F)c[nH]c2nncc1-2 [BMS-265246]

>  <Reading>
79.2

$$$$
>  <Compound>
CCN1CCN(Cc2ccc(Nc3ncc(F)c(-c4cc(F)c5nc(C)n(C(C)C)c5c4)n3)nc2)CC1 [Abemaciclib]

>  <Reading>
82.9

$$$$
>  <Compound>
COc1cc(F)ccc1-c1cc(Nc2cc(CS(C)(=N)=O)ccn2)ncc1F (centres unmarked) [BAY-1251152]

>  <Reading>
63.1

$$$$
>  <Compound>
COc1cc(F)ccc1-c1ncnc(Nc2cccc(C[S@](C)(=N)=O)c2)n1 [Atuveciclib]

>  <Reading>
31.1

$$$$

---

Molecular target: CDK16/Cyclin Y (Homo sapiens, UniProt Q00536)
Sequence (Q00536 whole entry): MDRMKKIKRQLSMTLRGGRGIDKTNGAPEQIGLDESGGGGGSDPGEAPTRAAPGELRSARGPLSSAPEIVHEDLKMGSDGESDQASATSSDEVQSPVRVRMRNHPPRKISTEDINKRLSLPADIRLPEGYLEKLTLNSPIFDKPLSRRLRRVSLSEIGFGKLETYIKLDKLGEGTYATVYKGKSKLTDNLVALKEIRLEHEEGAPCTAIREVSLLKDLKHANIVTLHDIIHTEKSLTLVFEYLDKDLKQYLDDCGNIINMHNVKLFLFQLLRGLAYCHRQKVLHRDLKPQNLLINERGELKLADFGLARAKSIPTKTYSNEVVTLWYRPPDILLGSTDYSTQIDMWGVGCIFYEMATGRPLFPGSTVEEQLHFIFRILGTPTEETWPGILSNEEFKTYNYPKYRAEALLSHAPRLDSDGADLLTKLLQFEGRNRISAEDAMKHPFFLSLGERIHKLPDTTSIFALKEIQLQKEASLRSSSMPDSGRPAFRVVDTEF
Sequence (Q8ND76 whole entry partner): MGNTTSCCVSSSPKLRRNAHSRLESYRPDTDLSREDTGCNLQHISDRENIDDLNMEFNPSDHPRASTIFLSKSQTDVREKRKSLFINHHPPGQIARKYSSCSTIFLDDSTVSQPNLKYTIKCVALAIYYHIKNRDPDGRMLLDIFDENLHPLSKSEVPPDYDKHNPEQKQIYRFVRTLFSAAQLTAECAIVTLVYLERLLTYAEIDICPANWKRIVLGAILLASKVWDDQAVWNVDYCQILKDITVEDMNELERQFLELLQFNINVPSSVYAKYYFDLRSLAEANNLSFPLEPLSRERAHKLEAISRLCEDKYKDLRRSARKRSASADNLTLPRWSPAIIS
Experiment: NanoBRET live-cell target engagement, CDK16-NanoLuc/Cyclin Y in HEK-293
Format: binding
Conditions: 10µM; independent experiment 1
Reported CDK16/Y Inhibition at 10µM (%) by item:

>  <Compound>
O=C1NC(=NCc2cccs2)S/C1=C\c1ccc2ncccc2c1

>  <CDK16/Y Inhibition at 10µM (%)>
47.1

$$$$
>  <Compound>
O=C1NCCc2[nH]c(-c3ccncc3)cc21

>  <CDK16/Y Inhibition at 10µM (%)>
25.1

$$$$
>  <Compound>
Cc1c(Br)c(Br)c2c3c1nc(N1CCNCC1)n3CCC2.Cl [SEL 120-34A]

>  <CDK16/Y Inhibition at 10µM (%)>
51.2

$$$$
>  <Compound>
CN(C)C/C=C/C(=O)Nc1ccc(C(=O)Nc2cccc(Nc3ncc(Cl)c(-c4c[nH]c5ccccc45)n3)c2)cc1

>  <CDK16/Y Inhibition at 10µM (%)>
74.4

$$$$

---

Reported pIC50 by item:
Target: CDK3/Cyclin E1 (Homo sapiens)
Assay: NanoBRET live-cell target engagement, CDK3-NanoLuc/Cyclin E1 in HEK-293
Format: binding
Details: live HEK-293, 2 h; mean ± S.E.M. (n=3) or mean (n=2); read-out: IC50 for CDK/cyclin complexes, CDK3/E1
pIC50: −log10 of the molar value.

>  <Molecule>
CS(=O)(=O)N1CCC(NC(=O)c2[nH]ncc2NC(=O)c2c(Cl)cccc2Cl)CC1 [NVP-LCQ195]

>  <pIC50>
7.44

$$$$
>  <Molecule>
O=C1NC(=NCc2cccs2)S/C1=C\c1ccc2ncccc2c1 [RO-3306]

>  <pIC50>
6.70

$$$$
>  <Molecule>
CCCCOc1c(C(=O)c2c(F)cc(C)cc2F)c[nH]c2nncc1-2 [BMS-265246]

>  <pIC50>
8.00

$$$$
